The binders listed here are annotated with their EC50.
Molecular target: T1, human 4-1BB-His protein (human, UniProt Q07011 24-186)
T1 construct: Recombinant His-tagged protein; also called human 4-1BB-his tag; recombinant 4-1BB protein; not shown: His tag
Assay: ELISA, plate coated with human 4-1BB-His, anti-human IgG-HRP
// return numeric value only (unit: ng/mL, not printed)

binder	EC50, ng/mL
B164 chimeric mAb (VHH, Alpaca VHH tested as 'chimeric mAb') VHH: EVQLVESGGGLVQAGGSLRLSCAASGSIFSYMFWYRQPQGKQREYVAHITSGGRTNYADSVTGRFTISRGNNDNTMYLQMNNLKPEDTAVYYCAADDAVYTDRTYWGQGTQVTVSS	5.2
B16 chimeric mAb (VHH, Alpaca VHH tested as 'chimeric mAb') VHH: QVQLVESGGGLVQPGGSLRLSCAASGFTLDYYAIGWFRQAPGKEREGVSCISSSDGSTYYADSVKGRFTISRDNAKNTVYLQMNSLKPEDTAVYYCATDTTTRCPIWSYYVESDYWGQGTQVTVSS	10.6

With those in mind, consider the next binder.
The binder identified as B125 chimeric mAb (VHH, Alpaca VHH tested as 'chimeric mAb') VHH: QVQLVESGGGLVQPGGSLRLSCAASGFAFSDYAIGWFRQAPGKEREGVSCISSSDGSTYYADSVKGRFTISRDNAKNTVYLQMNSLKPEDTAVYYCATDTTTRCPIWSYYVESDYWGQGTQVTVSS registered its EC50 at 2.06

Data origin: patent US20240417482A1
